# system: Stb4 (UniProt P50104)
# Sequence (P50104 whole entry): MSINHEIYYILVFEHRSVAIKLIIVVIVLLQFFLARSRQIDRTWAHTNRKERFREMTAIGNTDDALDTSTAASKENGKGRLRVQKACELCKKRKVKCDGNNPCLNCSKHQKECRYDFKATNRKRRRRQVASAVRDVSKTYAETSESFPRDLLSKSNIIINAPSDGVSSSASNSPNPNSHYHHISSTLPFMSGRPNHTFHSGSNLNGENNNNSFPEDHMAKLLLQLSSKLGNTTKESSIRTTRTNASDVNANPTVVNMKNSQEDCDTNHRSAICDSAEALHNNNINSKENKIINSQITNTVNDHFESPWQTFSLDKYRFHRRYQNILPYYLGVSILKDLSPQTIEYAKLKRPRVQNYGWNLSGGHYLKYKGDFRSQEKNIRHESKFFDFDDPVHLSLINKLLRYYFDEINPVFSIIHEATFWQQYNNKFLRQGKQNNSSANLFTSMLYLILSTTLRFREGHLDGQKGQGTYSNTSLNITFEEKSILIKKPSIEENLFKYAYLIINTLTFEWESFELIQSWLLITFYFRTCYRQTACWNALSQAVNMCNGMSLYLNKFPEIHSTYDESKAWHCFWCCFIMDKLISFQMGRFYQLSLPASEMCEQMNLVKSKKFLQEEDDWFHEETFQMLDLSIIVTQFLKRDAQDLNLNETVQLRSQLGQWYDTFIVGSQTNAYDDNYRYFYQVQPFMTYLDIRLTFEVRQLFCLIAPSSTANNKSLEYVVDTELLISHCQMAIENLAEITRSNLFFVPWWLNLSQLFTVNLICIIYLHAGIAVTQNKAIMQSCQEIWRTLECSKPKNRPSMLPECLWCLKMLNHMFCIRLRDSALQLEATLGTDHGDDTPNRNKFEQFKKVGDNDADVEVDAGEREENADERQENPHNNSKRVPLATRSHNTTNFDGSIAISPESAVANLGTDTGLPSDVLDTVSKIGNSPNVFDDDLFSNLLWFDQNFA
# assay.name: PBM E-score (8-mer binding enrichment) (E-score (-0.5 to 0.5)); higher = stronger / more preferred TF binding
# condition.description: protein concentration: 200 nM; construct: GST-DNA-binding domain
In all, about 33,000 sequences were measured (“E-score (-0.5 to 0.5)”: median about -0.056, highest 2% from about 0.38 on). Only a selection was taken, and the highest values are over-represented in it overall.
quantity.measured: PBM E-score
Reply: number alone, nothing else.

Use these answered entries as a reference point.
{"columns": ["sequence", "PBM E-score"],
 "data": [
  ["CGAGCCGC", 0.328],
  ["CATCCGAC", 0.455],
  ["CCCCCCTA", -0.178],
  ["ACGAGACC", -0.0429],
  ["ACCCGCTA", 0.151]
]}

Item under review: AGGTTCAT . Reported PBM E-score?
-0.128
